# Bliss excess values compiled below
System: MOG-G-CCM (Low Grade Glioma);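 also: after 72 h of two-drug dosing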
test name: Bliss excess, mean over the matrix (fraction); higher = more synergy
endpoint: Bliss excess

{"columns": ["molecule", "endpoint", "result value"],
 "data": [
  ["COc1cccc(OCCCN)c1-c1cc(Nc2cnc(C#N)cn2)n[nH]1 [Prexasertib] + Cc1cc2ncnn2cc1Nc1ncc2c(n1)n(C1CCOCC1)c(=O)n2C [AZD7648] (first compound max 1 µM, 7x7, partner max 10 µM)", "Bliss excess", -0.0037],
  ["COc1cccc(OCCCN)c1-c1cc(Nc2cnc(C#N)cn2)n[nH]1 [Prexasertib] + O=C(c1cc(Cc2n[nH]c(=O)c3ccccc23)ccc1F)N1CCN(C(=O)C2CC2)CC1 [Olaparib] (first compound max 1 µM, 7x7, partner max 10 µM)", "Bliss excess", -0.053],
  ["Cn1cnc2c(F)c(Nc3ccc(Br)cc3Cl)c(C(=O)NOCCO)cc21 [Selumetinib] + C[C@@H]1COCCN1C2=NC(=NC(=C2)C3(CC3)[S@](=N)(=O)C)C4=C5C=CNC5=NC=C4 [AZD6738] (first compound max 10 µM, 7x7, partner max 10 µM)", "Bliss excess", -0.0704],
  ["CC1(C)CCC(CN2CCN(c3ccc(C(=O)NS(=O)(=O)c4ccc(NCC5CCOCC5)c([N+](=O)[O-])c4)c(Oc4cnc5[nH]ccc5c4)c3)CC2)=C(c2ccc(Cl)cc2)C1 [Venetoclax] + CN(C)CCCOc1ccc(-c2ccc3ncc4c(c3c2)n(C2CCOCC2)c(=O)n4C)cn1 [AZD0156] (first compound max 1 µM, 7x7, partner max 1 µM)", "Bliss excess", -0.0198],
  ["NC1(C(=O)N[C@@H](CCO)c2ccc(Cl)cc2)CCN(c2ncnc3[nH]ccc23)CC1 [Capivasertib] + CCN(CCO)CCCOc1ccc2c(Nc3cc(CC(=O)Nc4cccc(F)c4)[nH]n3)ncnc2c1 [AZD2811] (first compound max 10 µM, 7x7, partner max 1 µM)", "Bliss excess", -0.0373],
  ["Cc1cc2ncnn2cc1Nc1ncc2c(n1)n(C1CCOCC1)c(=O)n2C [AZD7648] + COc1cc([C@@H]2c3cc4c(cc3[C@@H](O[C@@H]3O[C@@H]5CO[C@@H](C)O[C@H]5[C@H](O)[C@H]3O)[C@H]3COC(=O)[C@H]23)OCO4)cc(OC)c1O [Etoposide] (first compound max 10 µM, 7x7, partner max 10 µM)", "Bliss excess", 0.106],
  ["C=CCn1c(=O)c2cnc(Nc3ccc(N4CCN(C)CC4)cc3)nc2n1-c1cccc(C(C)(C)O)n1 [AZD1775] + C[C@@H]1COCCN1C2=NC(=NC(=C2)C3(CC3)[S@](=N)(=O)C)C4=C5C=CNC5=NC=C4 [AZD6738] (first compound max 1 µM, partner max 10 µM)", "Bliss excess", 0.0195]
]}

* * *

System: NCI-H2731 (Mesothelioma)
test name: combination Emax (second highest fraction inhibited in the dose matrix, 72 h); higher = more inhibition; extreme values may be limits of the assay
met means recorded combination Emax is 0.4 or above; not met means it is below 0.4.

{"columns": ["compound", "target entity", "cat"],
 "data": [
  ["NC1(C(=O)N[C@@H](CCO)c2ccc(Cl)cc2)CCN(c2ncnc3[nH]ccc23)CC1 [Capivasertib] + CC(=O)c1c(C)c2cnc(Nc3ccc(N4CCNCC4)cn3)nc2n(C2CCCC2)c1=O [Palbociclib] (first compound max 10 µM, 7x7, partner max 10 µM)", "NCI-H2731 (Mesothelioma)", "not met"],
  ["N#Cc1cnc(Nc2cc(NC[C@H]3CNCCO3)c(C(F)(F)F)cn2)cn1 [SRA737] + Nc1ccn([C@@H]2O[C@H](CO)[C@@H](O)C2(F)F)c(=O)n1 [Gemcitabine] (first compound max 10 µM, 7x7, partner max 0.3 µM)", "NCI-H2731 (Mesothelioma)", "met"],
  ["COc1nnc2ccc(N3CCC(c4ccc(OCCN5CCN(C)C(=O)[C@H]5C)cc4)CC3)nn12 [AZD5153] + Cc1c2c(nn1C)CSCc1cc(n(C)n1)CSc1cc(c3ccccc3c1)OCCCc1c(C(=O)O)n(C)c3c-2c(Cl)ccc13 [AZD5991] (first compound max 1 µM, 7x7, partner max 1 µM)", "NCI-H2731 (Mesothelioma)", "met"],
  ["C[C@@H](Nc1cc(F)cc(F)c1)c1cc(C(=O)N(C)C)cc2c(=O)cc(N3CCOCC3)oc12 [AZD8186] + C1CN(CCC1(C(=O)N[C@@H](CCO)C2=CC=C(C=C2)Cl)N)C3=NC=NC4=C3C=CN4 [AZD5363] (first compound max 10 µM, 7x7, partner max 10 µM)", "NCI-H2731 (Mesothelioma)", "not met"],
  ["O=C(c1cc(Cc2n[nH]c(=O)c3ccccc23)ccc1F)N1CCN(C(=O)C2CC2)CC1 [Olaparib] + COc1nnc2ccc(N3CCC(c4ccc(OCCN5CCN(C)C(=O)[C@H]5C)cc4)CC3)nn12 [AZD5153] (first compound max 10 µM, 7x7, partner max 1 µM)", "NCI-H2731 (Mesothelioma)", "not met"],
  ["COc1cccc(OCCCN)c1-c1cc(Nc2cnc(C#N)cn2)n[nH]1 [Prexasertib] + Cc1cc2ncnn2cc1Nc1ncc2c(n1)n(C1CCOCC1)c(=O)n2C [AZD7648] (first compound max 1 µM, 7x7, partner max 10 µM)", "NCI-H2731 (Mesothelioma)", "not met"]
]}
